measured-on: YY1 (UniProt P25490)
Sequence (P25490 whole entry, looked up): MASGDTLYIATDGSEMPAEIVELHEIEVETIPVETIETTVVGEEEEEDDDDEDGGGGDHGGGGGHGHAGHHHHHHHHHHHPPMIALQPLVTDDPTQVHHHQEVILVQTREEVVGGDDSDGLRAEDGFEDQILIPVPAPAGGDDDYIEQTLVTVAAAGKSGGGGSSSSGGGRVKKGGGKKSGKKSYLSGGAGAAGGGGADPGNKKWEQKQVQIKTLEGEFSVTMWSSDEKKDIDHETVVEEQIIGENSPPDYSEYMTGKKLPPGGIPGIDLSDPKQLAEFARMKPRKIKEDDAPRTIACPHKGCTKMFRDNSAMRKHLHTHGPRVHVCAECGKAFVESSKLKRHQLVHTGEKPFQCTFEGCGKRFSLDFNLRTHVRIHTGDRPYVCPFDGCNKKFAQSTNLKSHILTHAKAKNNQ
method: log2 fold change, soluble protein after heating vs DMSO (PISA); higher = thermal stabilisation; K562 cells, 10 uM, 30 min; active = over 0.2 and 3.5 SD of the protein, either way, in both replicates (recomputed)
The full data set covers some 7,900 targets. This sample favours those with a hit. About 0.6% of all pairs of compound and target were hits.
Output true (1) for log2 fold change not less than 0.004; output false (0) otherwise.

Would you please look over these solved cases?
> print(dat)
                                 cpd.smiles  group.label
1               O=C(CCCCCCC(=O)Nc1ccccc1)NO     true (1)
2  CCn1cc(-c2ccnc3[nH]c(-c4cccc(CN(C)C)c4)cc23)c(-c2ccc(NC(=O)N(C)C)cc2)n1    false (0)
3  CCCS(=O)(=O)Nc1ccc(F)c(C(=O)c2c[nH]c3ncc(Cl)cc23)c1F     true (1)
4  NCC(=O)Nc1ccc(-n2nc(C(F)(F)F)cc2-c2ccc3c(ccc4ccccc43)c2)cc1    false (0)
5  CNCc1ccc(-c2[nH]c3cc(F)cc4c3c2CCNC4=O)cc1    false (0)
6            O=C1c2ccccc2-c2n[nH]c3cccc1c23    false (0)
7  CN1CCc2c(c3ccccc3n2Cc2ccc(C(=O)NO)cc2)C1    false (0)

Attention now shifts to the item below.
## Input Test whether the compound CN1CCN(CCOc2cc(OC3CCOCC3)c3c(Nc4c(Cl)ccc5c4OCO5)ncnc3c2)CC1 records log2 fold change of 0.004 or higher.
## Output true (1)

* * *

Parameter log2 fold change: see the listing below.
measured-on: ZNF579 (UniProt Q8NAF0)
Sequence (Q8NAF0 whole entry, looked up): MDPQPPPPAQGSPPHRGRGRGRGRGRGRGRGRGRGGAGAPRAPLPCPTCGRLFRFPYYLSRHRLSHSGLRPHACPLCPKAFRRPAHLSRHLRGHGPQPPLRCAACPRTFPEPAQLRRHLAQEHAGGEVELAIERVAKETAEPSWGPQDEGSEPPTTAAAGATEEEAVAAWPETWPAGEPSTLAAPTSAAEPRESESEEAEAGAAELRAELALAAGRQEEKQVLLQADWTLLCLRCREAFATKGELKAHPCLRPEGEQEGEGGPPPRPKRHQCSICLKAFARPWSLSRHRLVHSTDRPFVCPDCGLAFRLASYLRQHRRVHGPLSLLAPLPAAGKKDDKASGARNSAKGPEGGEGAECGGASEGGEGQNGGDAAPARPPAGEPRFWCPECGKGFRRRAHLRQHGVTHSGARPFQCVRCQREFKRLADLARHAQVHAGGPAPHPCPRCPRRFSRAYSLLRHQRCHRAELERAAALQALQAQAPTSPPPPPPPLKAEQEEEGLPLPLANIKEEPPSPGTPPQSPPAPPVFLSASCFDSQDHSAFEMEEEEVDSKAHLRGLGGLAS
method: log2 fold change, soluble protein after heating vs DMSO (PISA); higher = thermal stabilisation; K562 cells, 10 uM, 30 min; active = over 0.2 and 3.5 SD of the protein, either way, in both replicates (recomputed)
Targets with a hit are over-represented here; the source holds about 7,900 in all. About 0.6% of all pairs of compound and target were hits.
The answer should be written as a number, with no unit following it.

Please review the following examples before continuing.
> print(dat)
                                   compound  reported.measurement
1  Cn1cc(-c2ccc3c(c2)CCN3C(=O)Cc2cccc(C(F)(F)F)c2)c2c(N)ncnc21                 0.059
2  Cc1ccc(NC(=O)c2cccc(N(C)C)c2)cc1NC(=O)c1ccc(O)cc1                -0.183
3  CC1=C(C(=O)Nc2cc3cn[nH]c3cc2F)C(c2ccc(C(F)(F)F)cc2)CC(=O)N1 (stereo not drawn)                -0.003
4  CNC(=O)c1ccc(Nc2ncc(C(F)(F)F)c(NCc3nccnc3N(C)S(C)(=O)=O)n2)cc1                 0.019
5  Cc1ccc(NC(=O)c2ccc(CN3CC[C@H](N(C)C)C3)c(C(F)(F)F)c2)cc1Nc1nccc(-c2cncnc2)n1                 0.107

## Input Query log2 fold change on ZNF579 (UniProt Q8NAF0) for O=C(CCCCCCNC(=O)c1cnc(N(c2ccccc2)c2ccccc2Cl)nc1)NO
## Output -0.089

## Input Query log2 fold change on ZNF579 (UniProt Q8NAF0) for CCN(CC)Cc1ccc2cc(COC(=O)Nc3ccc(C(=O)NO)cc3)ccc2c1
## Output 0.042

## Input Query log2 fold change on ZNF579 (UniProt Q8NAF0) for COC(=O)[C@H](CCSC)NC(=O)c1ccc(NC[C@@H](N)CS)cc1-c1ccccc1
## Output -0.012

* * *

Parameter log2 fold change: see the listing below.
measured-on: ZNF239 (UniProt Q16600)
Sequence (Q16600 whole entry, looked up): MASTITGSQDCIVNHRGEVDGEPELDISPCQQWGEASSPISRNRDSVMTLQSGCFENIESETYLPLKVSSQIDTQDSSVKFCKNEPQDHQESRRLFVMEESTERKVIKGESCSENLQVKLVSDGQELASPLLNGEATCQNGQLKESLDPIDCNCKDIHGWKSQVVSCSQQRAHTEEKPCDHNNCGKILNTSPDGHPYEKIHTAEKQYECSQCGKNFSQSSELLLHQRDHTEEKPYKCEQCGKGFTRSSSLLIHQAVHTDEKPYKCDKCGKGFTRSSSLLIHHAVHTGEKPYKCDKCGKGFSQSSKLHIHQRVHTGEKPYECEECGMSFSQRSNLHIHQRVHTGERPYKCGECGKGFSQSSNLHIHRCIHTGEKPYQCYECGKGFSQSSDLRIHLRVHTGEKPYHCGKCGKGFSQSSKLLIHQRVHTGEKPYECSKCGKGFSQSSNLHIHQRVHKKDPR
method: log2 fold change, soluble protein after heating vs DMSO (PISA); higher = thermal stabilisation; K562 cells, 10 uM, 30 min; active = over 0.2 and 3.5 SD of the protein, either way, in both replicates (recomputed)
The full data set covers some 7,900 targets. This sample favours those with a hit. About 0.6% of all pairs of compound and target were hits.
The answer should be written as a number, with no unit following it.

molecule	measured-on	reported-measurement
CNc1nc(-c2ccc3c(N)n[nH]c3c2)cc(N2C[C@@H](C(=O)NC3CCCCC3)CC[C@H]2C)n1	ZNF239 (UniProt Q16600)	-0.055

## Input Requested read-out: log2 fold change. Entry: CCCS(=O)(=O)Nc1ccc(F)c(C(=O)c2c[nH]c3ncc(-c4ccc(Cl)cc4)cc23)c1F [vemurafenib]
## Output 0.004

## Input Requested read-out: log2 fold change. Entry: CC(=O)c1cnc2ccc(-c3cc(Cl)c(O)c(Cl)c3)nc2c1N[C@H]1CC[C@H](CN(C)C)CC1
## Output -0.439

## Input Requested read-out: log2 fold change. Entry: FC(F)(F)c1ccc(/C=C/c2nc(COc3ccc(CCCCn4ccnn4)cc3)co2)cc1 [mubritinib]
## Output -0.483

## Input Requested read-out: log2 fold change. Entry: CC[C@H](C)[C@H](NC(=O)[C@H]([C@@H](C)CC)N(C)C(C)=O)C(=O)N[C@H](C(=O)N[C@@H](CC(C)C)C(=O)[C@@]1(C)CO1)[C@@H](C)O [epoxomicin]
## Output -0.051

## Input Requested read-out: log2 fold change. Entry: CN(C)CC(=O)Nc1ccc2[nH]c(=O)c3ccccc3c2c1
## Output -0.1

## Input Requested read-out: log2 fold change. Entry: Cc1ccc(Sc2cncc3sc(C(N)=O)cc23)cc1
## Output 0.019

## Input Requested read-out: log2 fold change. Entry: Cc1ncc(-c2ccnc(Nc3ccc(S(C)(=O)=O)cc3)n2)n1C(C)C
## Output 0.275

## Input Requested read-out: log2 fold change. Entry: NC1(Cc2ccc(Cl)cc2)CCN(c2ncnc3[nH]ccc23)CC1
## Output 0.117

## Input Requested read-out: log2 fold change. Entry: COc1cc2nc(-c3cc(F)ccc3O)nc(N[C@@H]3CNC[C@H]3C(C)(C)O)c2cc1OC
## Output 0.024

## Input Requested read-out: log2 fold change. Entry: CC(C)C[C@@H](C=O)NC(=O)[C@H](CC(C)C)NC(=O)[C@H](CC(C)C)NC(=O)OCc1ccccc1
## Output 0.045

## Input Requested read-out: log2 fold change. Entry: NCC(=O)Nc1ccc(-n2nc(C(F)(F)F)cc2-c2ccc3c(ccc4ccccc43)c2)cc1
## Output -0.027

* * *

measured-on: YOD1 (UniProt Q5VVQ6)
Sequence (Q5VVQ6 whole entry, looked up): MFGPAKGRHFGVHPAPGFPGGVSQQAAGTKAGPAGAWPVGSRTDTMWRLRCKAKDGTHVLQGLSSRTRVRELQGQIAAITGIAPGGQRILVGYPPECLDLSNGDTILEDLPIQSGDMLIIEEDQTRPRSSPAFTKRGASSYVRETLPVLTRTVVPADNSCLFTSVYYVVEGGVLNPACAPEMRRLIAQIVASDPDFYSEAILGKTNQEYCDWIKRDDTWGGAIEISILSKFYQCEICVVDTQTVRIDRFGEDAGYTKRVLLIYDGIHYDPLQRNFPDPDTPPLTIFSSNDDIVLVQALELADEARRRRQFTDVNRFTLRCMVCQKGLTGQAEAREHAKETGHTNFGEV
method: log2 fold change, soluble protein after heating vs DMSO (PISA); higher = thermal stabilisation; K562 cells, 10 uM, 30 min; active = over 0.2 and 3.5 SD of the protein, either way, in both replicates (recomputed)
About 7,900 targets were measured; listed, in parts, are those with a hit and a random draw of the rest. About 0.6% of all pairs of compound and target were hits.
Parameter log2 fold change: see the listing below.
The answer should be written as a number, with no unit following it.

> print(dat)
                                   compound  reported.measurement
1  C#Cc1cccc(Nc2ncnc3cc(OCCOC)c(OCCOC)cc23)c1 [erlotinib]                 0.064
2  CNC(=O)c1ccc(Nc2ncc(C(F)(F)F)c(NCc3nccnc3N(C)S(C)(=O)=O)n2)cc1 [defactinib]                -0.103
3  CON(C)C(=O)N1N=C(c2cc(F)ccc2F)S[C@@]1(CCCN)c1ccccc1 [filanesib]                -0.067
4  COC(=O)N[C@@H](C)CNc1nccc(-c2cn(C(C)C)nc2-c2cc(Cl)cc(NS(C)(=O)=O)c2F)n1 [encorafenib]                  0.02
5  C[C@@H](N)c1ccc(C(=O)Nc2ccnc3[nH]ccc23)cc1                 -0.04

## Input Requested read-out: log2 fold change. Entry: COc1cc2ncnc(Nc3ccc(F)c(Cl)c3)c2cc1OCCCN1CCOCC1 [gefitinib]
## Output 0.006

## Input Requested read-out: log2 fold change. Entry: COc1cc(C(=O)O)ccc1NC(=O)[C@@H]1N[C@@H](CC(C)(C)C)[C@](C#N)(c2ccc(Cl)cc2F)[C@H]1c1cccc(Cl)c1F [idasanutlin]
## Output -0.038

## Input Requested read-out: log2 fold change. Entry: Oc1cc(-c2nc(-c3ccccc3)[nH]c2-c2ccncc2)ccc1Cl
## Output -0.02

## Input Requested read-out: log2 fold change. Entry: Cc1ccc(Sc2cncc3sc(C(N)=O)cc23)cc1
## Output 0.009

## Input Requested read-out: log2 fold change. Entry: CC[C@@H]1C(=O)N(C)c2cnc(Nc3ccc(C(=O)N[C@H]4CC[C@H](N5CCN(CC6CC6)CC5)CC4)cc3OC)nc2N1C(C)C [volasertib]
## Output -0.247

## Input Requested read-out: log2 fold change. Entry: CCCS(=O)(=O)Nc1ccc(F)c(C(=O)c2c[nH]c3ncc(Cl)cc23)c1F
## Output 0.033

## Input Requested read-out: log2 fold change. Entry: c1cn2cc(-c3ccc4cn[nH]c4c3)nc(Nc3ccc(N4CCOCC4)cc3)c2n1 [entospletinib]
## Output -0.013

## Input Requested read-out: log2 fold change. Entry: NC1(Cc2ccc(Cl)cc2)CCN(c2ncnc3[nH]ccc23)CC1
## Output -0.037
